For each record, write down the corresponding EC20.
System: left atrial muscle
Assay: Test Method 1: enhancement of contracting force of left atrial muscle extirpated from a guinea pig (electrically stimulated at 1 Hz)
Type: cell-based
Details: Cavia porcellus, Krebs-Henseleit solution 32° C., read-out: EC20 (molar concentration for enhancing the left atrial muscle contracting force to the level of 20%)
Protocol: The drug according to the present invention was evaluated with reference to the physiological activities by means of a method using an atrial muscle extirpated from a guinea pig. Male guinea pigs having a body weight of 300-500 g were made swooned by striking his head and were bleeded to death. The heart was extirpated and the right and left atrial muscles were cut off. The tops of each atrial muscle were fixed with cerrefines. […]
Form entry: value (µM) — number only.

Give EC20 for `CCOC(=O)c1c[nH]c2c(OC)ccc(-c3ccccc3)c2c1=O`
1.58

Give EC20 for `O=c1cc[nH]c2cc(N3CCNCC3)ccc12`
46.8

Give EC20 for `CCOc1cc2c(cc1OC)c(=O)cc(-c1cccs1)n2CC`
2.51

Give EC20 for `CCOc1cc2c(cc1OC)c(=O)ccn2CC(C)C`
4.32

Give EC20 for Cn1c(=O)c2[nH]cnc2n(C)c1=O [Theophylline, theophylline, reference compound]
72.4

Give EC20 for `COCOc1cc2[nH]ccc(=O)c2cc1OC`
114

Give EC20 for `CCOC(=O)c1cn(CC)c2c(OC)cc(OCC)cc2c1=O`
4.73

Give EC20 for `CCn1cc(C(=O)N2CCN(c3ccccc3OC)CC2)c(=O)c2cc(C)ccc21`
44.2

Give EC20 for COc1ccc2[nH]ccc(=O)c2c1O [Compound 1, 5-hydroxy-6-methoxy-4(1H)-quinolone]
199

Give EC20 for `CCn1cc(C(=O)O)c(=O)c2cc(C)ccc21`
181

Give EC20 for `CCOC(=O)c1cn(CC)c2c(OCC)cc(OC)cc2c1=O`
8.41

Give EC20 for `COc1ccc(OC)c(/C=C/c2ccc3[nH]ccc(=O)c3c2)c1`
45.7

Give EC20 for `CCn1ccc(=O)c2cc(/C=C/c3cc(OC)ccc3OC)ccc21`
18.2

Give EC20 for `CCOC(=O)c1c[nH]c2c(OC)ccc(C)c2c1=O`
3.54

Give EC20 for `C=CCn1c(C2CC2)cc(=O)c2cc(OC)c(OCC)cc21`
3

Give EC20 for `CCCCOc1cc2c(cc1OC)c(=O)cc(-c1ccco1)n2CC`
10

Give EC20 for `COc1cc2c(=O)ccn(C)c2cc1OC`
12.5

Give EC20 for `CCn1ccc(=S)c2cc3c(cc21)OCO3`
42.2

Give EC20 for `CCOc1cc2c(=O)c(C(=O)O)cn(CC)c2cc1OC`
30

Give EC20 for `CCOc1cc2c(cc1OC)c(=O)ccn2CC`
8.13

Give EC20 for COc1ccc2c(=O)cc[nH]c2c1O [Compound 3, 8-hydroxy-7-methoxy-4(1H)-quinolone]
708

Give EC20 for `CCOC(=O)c1c[nH]c2c(OCOC)ccc(OC)c2c1=O`
741

Give EC20 for `CCn1cc(C(=O)N2CCN(c3ccc([N+](=O)[O-])cc3)CC2)c(=O)c2cc(OC)c(OC)cc21`
105

Give EC20 for `COc1cccc2c(=O)c(C(=O)N3CCN(Cc4ccc5c(c4)OCO5)CC3)cn(C)c12`
16.2

Give EC20 for `COc1cc(SC)c2[nH]ccc(=O)c2c1`
6.92

Give EC20 for `CCCn1cc(C(=O)O)c(=O)c2cc(OC)c(OCC)cc21`
376

Give EC20 for `CCOC(=O)c1cn(CC)c2c(OC)cc(S(C)(=O)=O)cc2c1=O`
4.57

###

system: left atrial muscle; assay: Test Method 1: enhancement of contracting force of left atrial muscle extirpated from a guinea pig (electrically stimulated at 1 Hz); assay type: cell-based; conditions: Cavia porcellus, Krebs-Henseleit solution 32° C., read-out: EC20 (molar concentration for enhancing the left atrial muscle contracting force to the level of 20%)
Label TRUE when EC20 is strictly below 10 µM; otherwise label FALSE.

For `COc1ccc(Cn2ccc(=O)c3cc(OC)c(OC)cc32)cc1` , is the recorded EC20 below the cut-off of 10 µM?
TRUE

For `COc1cc(OCc2ccccc2)cc2c(=O)cc[nH]c12` , is the recorded EC20 below the cut-off of 10 µM?
TRUE

For `COc1cc2c(=O)cc[nH]c2cc1OC(C)C` , is the recorded EC20 below the cut-off of 10 µM?
FALSE

For `CCOC(=O)c1c[nH]c2c(C)cc(N(CC)CC)cc2c1=O` , is the recorded EC20 below the cut-off of 10 µM?
FALSE

For CCOC(=O)c1cn(CC)c2c(OC)cc([S+](C)[O-])cc2c1=O (stereo not shown) , is the recorded EC20 below the cut-off of 10 µM?
FALSE

For `CCOc1cc2[nH]ccc(=O)c2cc1OC` , is the recorded EC20 below the cut-off of 10 µM?
TRUE

For COc1c(O)ccc2[nH]ccc(=O)c12 [Compound 2, 6-hydroxy-5-methoxy-4(1H)-quinolone] , is the recorded EC20 below the cut-off of 10 µM?
FALSE

Attribution: patent US5081121A
